Target: human bradykinin 1 receptor (B1R) (Homo sapiens)
Construct: expressed in transfected cells; host or cells: CHO K1 cells
Assay: Functional investigation on the human bradykinin 1 receptor (B1R), Ca2+ FLIPR assay in CHO K1 hB1R cells
Type: cell-based
Details: CHO-K1, B1R antagonism human; test substance 10 μM; Ca2+ FLIPR, CHO K1 hB1R cells; read-out: B1R Ant. h [10 μM] % Inhibition
Measured inhibition at 10 µM, listed per entry for reference.
Quick reminder: number only, in %, skip the unit.

// worked examples, inhibition at 10 µM included
COc1cc(C)c(S(=O)(=O)N2CCCC2COCC(=O)NCC2CCC(C(c3ccccc3)N3CCOCC3)CC2)c(C)c1 (centres unmarked) :: 82
COc1cc(C)c(S(=O)(=O)N2CCCC(COCC(=O)NCC3CCC(C(c4ccccc4)N4CCCC4)CC3)C2)c(C)c1 (centres unmarked) :: 71
COc1ccc(S(=O)(=O)N2Cc3ccccc3CC2COCC(=O)NCCC2CCC(C(c3cccc(F)c3)N(C)C)CC2)cc1 (centres unmarked) :: 29

In: Given COc1cc(C)c(S(=O)(=O)N(C)CCOCC(=O)NCCC2CCC(C(c3cccs3)N(C)C)CC2)c(C)c1 (centres unmarked) , respond with its inhibition at 10 µM.
Out: 104

In: # return recorded inhibition at 10 µM for input CN(C)C(c1cccs1)C1CCC(CNC(=O)COC2CCN(S(=O)(=O)c3ccccc3)C2)CC1 (centres unmarked)
Out: -11

In: For the compound CN(CCOCC(=O)NC1CCC(C(c2ccccc2)N2CCOCC2)CC1)S(=O)(=O)c1c(Cl)cccc1Cl (centres unmarked) , report inhibition at 10 µM.
Out: 32

In: Find the measured inhibition at 10 µM of O=C(COCCN(C1CC1)S(=O)(=O)c1c(Cl)cc(Cl)cc1Cl)NC1CCC(C(c2ccccc2)N2CCOCC2)CC1 (centres unmarked) and report it.
Out: 40

In: Please indicate inhibition at 10 µM recorded for CN(C)C(c1cccs1)C1CCC(CCNC(=O)COCCN(C)S(=O)(=O)c2ccc(Cl)cc2Cl)CC1 (centres unmarked)
Out: 97

* * *

Molecular target: human bradykinin 1 receptor (B1R) (Homo sapiens, UniProt P46663)
Construct: expressed in transfected cells; host or cells: CHO K1 cells
Sequence (P46663 whole entry): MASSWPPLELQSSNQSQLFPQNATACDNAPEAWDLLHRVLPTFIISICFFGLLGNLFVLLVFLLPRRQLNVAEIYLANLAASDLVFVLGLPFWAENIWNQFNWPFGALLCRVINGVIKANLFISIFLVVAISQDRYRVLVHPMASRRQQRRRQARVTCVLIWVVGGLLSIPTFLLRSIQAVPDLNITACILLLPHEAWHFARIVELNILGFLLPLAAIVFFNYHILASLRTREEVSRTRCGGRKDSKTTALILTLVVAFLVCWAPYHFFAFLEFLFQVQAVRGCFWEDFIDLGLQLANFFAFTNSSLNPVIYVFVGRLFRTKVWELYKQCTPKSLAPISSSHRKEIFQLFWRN
Test: Functional investigation on the human bradykinin 1 receptor (B1R), Ca2+ FLIPR assay in CHO K1 hB1R cells
Type: cell-based
Conditions: CHO-K1, B1R antagonism human; test substance 10 μM; Ca2+ FLIPR, CHO K1 hB1R cells; read-out: B1R Ant. h [10 μM] % Inhibition
VALUE KIND: inhibition at 10 µM (%)
Give just the number in %; leave the unit off.

O=C(COC1CCN(S(=O)(=O)c2c(Cl)cc(Cl)cc2Cl)C1)NCC1CCC(C(CCc2ccccc2)N2CCCC2)CC1 (stereo not drawn) [Example 723] :: 90
Cc1cc(C)c(-c2noc(C(=O)NCC(=O)NC3CCC(C(c4ccccc4)N(C)C)CC3)n2)c(C)c1 (stereo not drawn) [Example 772] :: 11

Let's switch to this compound now.
In: Complete the entry with inhibition at 10 µM for CN(CCOCC(=O)NCC1CCC(C(CCc2ccccc2)N2CCCC2)CC1)S(=O)(=O)c1c(Cl)cccc1Cl (stereo not drawn) [Example 722]
Out: 101

* * *

Target: human bradykinin 1 receptor (B1R) (Homo sapiens, UniProt P46663)
Construct: expressed in transfected cells; host or cells: CHO K1 cells
Assay: Functional investigation on the human bradykinin 1 receptor (B1R), Ca2+ FLIPR assay in CHO K1 hB1R cells
Type: cell-based
Settings: CHO-K1, B1R antagonism human; test substance 10 μM; Ca2+ FLIPR, CHO K1 hB1R cells; read-out: B1R Ant. h [10 μM] % Inhibition
VALUE KIND: inhibition at 10 µM
Lab note: write values as number then unit, every time.

CN(Cc1ccccc1)C(c1ccccc1)C1CCC(NC(=O)COCCN(C)S(=O)(=O)c2c(Cl)cc(Cl)cc2Cl)CC1 (stereo not drawn) :: -6%
COc1cc(C)c(S(=O)(=O)N2CCN(CCOCC(=O)NCC3CCC(C(c4ccccc4)N(C)C)CC3)CC2)c(C)c1C (stereo not drawn) :: 63%

Next:
In: Give recorded inhibition at 10 µM. O=C(COCC1CCCN1S(=O)(=O)c1c(Cl)cc(Cl)cc1Cl)NCC1CCC(C(c2ccccc2)N2CCCC2)CC1 (stereo not drawn)
Out: 103%

* * *

Molecular target: human bradykinin 1 receptor (B1R) (Homo sapiens, UniProt P46663)
Construct: expressed in transfected cells; host or cells: CHO K1 cells
Assay: Functional investigation on the human bradykinin 1 receptor (B1R), Ca2+ FLIPR assay in CHO K1 hB1R cells
Format: cell-based
Conditions: B1R antagonism human; test substance 10 μM; Ca2+ FLIPR, CHO K1 hB1R cells
MET means recorded B1R Ant. h [10 μM] % Inhibition is 50% or above; NOT MET means it is below 50%.

Solved entries:
Cc1ccc(S(=O)(=O)N2CCC(OCC(=O)NCCC3CCC(C(c4cccc(F)c4)N(C)C)CC3)C2)cc1 (stereo not drawn) [Example 216] :: NOT MET
COc1cc(C)c(S(=O)(=O)N2CCC(OCC(=O)NCCC3CCC(C(c4cccc(F)c4)N(C)C)CC3)C2)c(C)c1 (stereo not drawn) [Example 307] :: MET
CN(C)C(c1ccc(Cl)cc1)C1CCC(CNC(=O)COCCN(C)S(=O)(=O)c2cccc(C(F)(F)F)c2)CC1 (stereo not drawn) [Example 314] :: MET
COc1cc(C)c(S(=O)(=O)N(C)CCOCC(=O)NC2CCC(C(c3ccccc3)N(C)C)CC2)c(C)c1 (stereo not drawn) [Example 239] :: MET
CN(C)C(c1ccc(F)cc1)C1CCC(CCNC(=O)COCCN(C)S(=O)(=O)c2c(Cl)cccc2Cl)CC1 (stereo not drawn) [Example 285] :: MET
CN(C)C(c1ccc(F)cc1)C1CCC(NC(=O)COCCN(C)S(=O)(=O)c2ccc(OC(F)(F)F)cc2)CC1 (stereo not drawn) [Example 361] :: NOT MET

In: API: above_or_equal(metric=B1R Ant. h [10 μM] % Inhibition, cutoff=50%) for item CN(C)C(c1ccc(Cl)cc1)C1CCC(CNC(=O)COCCN(C)S(=O)(=O)c2ccc(F)cc2)CC1 (stereo not drawn) [Example 263]
Out: NOT MET

In: Test whether the compound CN(C)C(c1ccc(F)cc1)C1CCC(CNC(=O)COCCN2CCN(S(=O)(=O)c3ccccc3)CC2)CC1 (stereo not drawn) [Example 433] records B1R Ant. h [10 μM] % Inhibition of 50% or higher.
Out: NOT MET

In: Hi, just wondering whether CN(C)C(c1ccc(Cl)cc1)C1CCC(CNC(=O)COCCN(C)S(=O)(=O)c2ccc(Cl)cc2Cl)CC1 (stereo not drawn) [Example 459] shows B1R Ant. h [10 μM] % Inhibition of 50% or higher.
Out: NOT MET

* * *

Measured 5-HT (inhibition of reuptake of serotonin, % inhibition) of individual entries
Target: serotonin (5-HT) reuptake (Rattus norvegicus, UniProt P31652)
Construct: synaptosomes are freshly isolated from areas of the rat brain; from tissue; host or cells: rat brain synaptosomes (P2 fraction)
Sequence (P31652 whole entry): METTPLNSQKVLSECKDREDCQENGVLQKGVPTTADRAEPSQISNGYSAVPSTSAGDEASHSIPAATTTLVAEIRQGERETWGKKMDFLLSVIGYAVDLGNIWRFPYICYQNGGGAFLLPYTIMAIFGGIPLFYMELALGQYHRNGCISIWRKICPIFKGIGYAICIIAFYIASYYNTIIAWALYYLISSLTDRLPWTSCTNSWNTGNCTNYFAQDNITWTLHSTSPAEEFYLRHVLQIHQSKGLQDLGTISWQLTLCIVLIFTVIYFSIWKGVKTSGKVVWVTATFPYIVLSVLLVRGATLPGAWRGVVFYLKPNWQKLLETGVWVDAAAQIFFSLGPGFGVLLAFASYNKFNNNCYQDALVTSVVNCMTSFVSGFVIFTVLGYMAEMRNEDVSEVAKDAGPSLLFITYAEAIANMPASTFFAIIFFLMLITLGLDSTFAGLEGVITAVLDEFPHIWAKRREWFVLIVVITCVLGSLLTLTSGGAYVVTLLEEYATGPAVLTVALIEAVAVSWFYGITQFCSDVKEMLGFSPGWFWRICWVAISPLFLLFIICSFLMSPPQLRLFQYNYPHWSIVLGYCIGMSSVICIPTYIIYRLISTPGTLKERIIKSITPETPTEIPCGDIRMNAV
Assay: Inhibition of serotonin (5HT) reuptake in synaptosomes from rat brain
Format: biochemical
Conditions: test concentration of 10 μM
Give just the number in %; leave the unit off.

// solved cases for 5-HT (inhibition of reuptake of serotonin, % inhibition) follow
CN(C)C(c1ccc(F)cc1)C1CCC(NC(=O)COC2CCCCC2N(C)S(=O)(=O)c2ccc(Cl)c(Cl)c2)CC1 (stereo not drawn) [Example 256] :: 84
COc1ccc(S(=O)(=O)N(C)CCOCC(=O)NC2CCC(C(c3cccc(F)c3)N(C)C)CC2)cc1 (stereo not drawn) [Example 250] :: 84

Now look at this one.
In: Give 5-HT (inhibition of reuptake of serotonin, % inhibition) for this entry on serotonin (5-HT) reuptake (Rattus norvegicus, UniProt P31652): CCN(CCOCC(=O)NCCC1CCC(C(c2ccc(Cl)cc2)N(C)C)CC1)S(=O)(=O)c1c(C)cc(OC)c(C)c1C (stereo not drawn) [Example 434]
Out: 82

* * *

Biological target: human μ opiate receptor (Homo sapiens, UniProt P35372)
Construct: purchased PerkinElmer Life Sciences, Zaventem, Belgium RB-HOM; host or cells: CHO-K1 cells (membrane preparation)
Sequence (P35372 whole entry): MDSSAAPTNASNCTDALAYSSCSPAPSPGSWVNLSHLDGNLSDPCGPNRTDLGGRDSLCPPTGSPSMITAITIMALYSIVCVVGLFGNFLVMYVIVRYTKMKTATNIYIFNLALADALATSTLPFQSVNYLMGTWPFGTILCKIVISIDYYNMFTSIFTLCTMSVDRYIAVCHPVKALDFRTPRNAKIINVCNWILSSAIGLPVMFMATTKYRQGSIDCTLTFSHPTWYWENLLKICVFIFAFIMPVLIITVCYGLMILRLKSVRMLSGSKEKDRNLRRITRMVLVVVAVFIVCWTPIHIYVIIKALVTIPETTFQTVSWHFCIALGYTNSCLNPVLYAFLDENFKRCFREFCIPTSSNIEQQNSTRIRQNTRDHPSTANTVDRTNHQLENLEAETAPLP
Test: Affinity for the human μ opiate receptor ([3H]-naloxone displacement, CHO-K1 receptor membrane preparation, SPA)
Format: binding
Settings: test concentration of 1 μM
VALUE KIND: μ (binding on the μ opioid receptor, % inhibition) (%)
Your answer is read as %, so omit the unit and give the number.

Study these solved cases before continuing.
CN(C)C(c1ccc(F)cc1)C1CCC(NC(=O)COCc2ccccc2)CC1 (centres unmarked) :: 37
Cc1ccc(S(=O)(=O)N(C)CCOCC(=O)NCCC2CCC(C(c3cccc(F)c3)N(C)C)CC2)cc1 (centres unmarked) :: 74
CN(C)C(c1cccc(F)c1)C1CCC(CNC(=O)COC2CCN(S(=O)(=O)c3ccc(Cl)cc3Cl)C2)CC1 (centres unmarked) :: 83
Cc1ccc(S(=O)(=O)N(C)CCOCC(=O)NC2CCC(C(c3cccs3)N(C)C)CC2)cc1 (centres unmarked) :: 83

Let's switch to this molecule now.
In: Specify μ (binding on the μ opioid receptor, % inhibition) for COc1cc(C)c(S(=O)(=O)N2CCC(OCC(=O)NCCC3CCC(C(c4cccc(F)c4)N(C)C)CC3)C2)c(C)c1C (centres unmarked) and stop.
Out: 76
